- target_system: Metabotropic glutamate receptor 8 (Rattus norvegicus)
- protocol_details: mGluR8 Gi/Go-coupled signaling modulation – cell-based, rat, thallium flux, HTS, primary screen (AID 488969)
- test_conditions: HEK293 rat mGluR8, GIRK (G protein-gated inwardly rectifying potassium channel) thallium flux, FluoZin2; at 10 µM; stronger effect = higher value; submaximal glutamate (EC20) added with thallium
Over roughly 110,000 compounds, “z-score” has its median near -0.1; the highest 2% begin near 2. The sample as a whole holds a higher share of the highest values than the screen did.
For each of the compounds below, state its z-score.
Give bare numbers.

Below are worked cases with known answers.
>>> quantitative_readout("CCCCNC(=O)c1ccc(N2CCC3(CC2)OCCO3)c([N+](=O)[O-])c1")
-0.757
>>> quantitative_readout("COc1cc(C(=S)N2CCCC2)cc(Cl)c1O")
2.62

List z-score for every entry below, keeping the order given.
1. O=C(NNc1c2ccccc2nc2ccccc12)c1cccc(O)c1
2. O=C1OC2(CCCCC2)OC(=O)C1=CNc1ccc2c(c1)OCO2
3. Cc1ccc(S(=O)(=O)NNc2nc3ccccc3nc2C(F)(F)F)cc1
4. O=C(NNc1nc2ccccc2nc1C(F)(F)F)c1ccccc1

-0.199
0.207
-0.286
2.44

Here are 6 compounds. What values of z-score were reported for them?
1. CN1CC(=O)N(CC(=O)NCc2ccc3c(c2)OCO3)C1=O
2. CCN(CC(O)COc1ccc(OCC(O)CN(CC)C2CCCCC2)cc1)C1CCCCC1 (configuration not stated)
3. Cc1ccc(C(=O)NNc2nc3ccccc3nc2C(F)(F)F)cc1
4. O=C(NNc1c2ccccc2nc2ccccc12)c1ccc(O)cc1O
5. O=C(NC(Nc1nc2ccccc2s1)(C(F)(F)F)C(F)(F)F)c1ccccc1
6. O=C(OCC(=O)N1CCc2ccccc21)c1cccc(S(=O)(=O)N2CCCc3ccccc32)c1

1. -0.14
2. 2.32
3. 5.19
4. 0.0188
5. -0.124
6. -0.134

Value sought for every listed compound: z-score.
1. Cc1sc2ncnc(SCC(=O)NC(=O)NCc3ccco3)c2c1C
2. O=C(CN(Cc1ccccc1)C(=O)CSc1nnc(COc2ccccc2)o1)NC1CCCC1
3. COc1cc(C(=S)N2CCCC2)ccc1O
4. CN(CC(O)COc1ccc(OCC(O)CN(C)C2CCCCC2)cc1)C1CCCCC1 (configuration not stated)
5. O=C(NCC1CCN(c2ccc(S(=O)(=O)N3CCOCC3)cc2)CC1)c1cccc(Cl)c1

1: 2.66; 2: 0.0593; 3: 0.115; 4: 1.64; 5: 0.0384
